B1: 1-phosphatidylinositol 4,5-bisphosphate phosphodiesterase gamma-2, residues 772 to 827; numbered along this chain, P16885 (parent)
chain: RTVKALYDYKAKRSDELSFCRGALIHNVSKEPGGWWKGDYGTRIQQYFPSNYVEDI

Variants of: B1
Assay text: abundance fitness (aPCA) (normalised: wild type 0, dead -1); higher = more abundant; growth selection in yeast, the domain comes from the species named
Setup conditions: Homo sapiens
Each entry below carries its reported abundance fitness.
// return just the number, without any unit appended

Below: 5 variants and their reported abundance fitness.
Seq string	abundance fitness
RTVKALYDYKAKRSDELSFCRGALIHNVSKEPGGWWKGDYFTRIQQYFPSNYVEDI [G41F]	-0.54
RTVKALYDYKAKRSDELSFQRGALIHNVSKEPGGWWKGDYGTRIQQYFPSNYVEDI [C20Q]	-0.143
RTVKALYDYKAKRSDELSFCRGALIHNVSKEPGGWWKSDYGTRIQQYFPSNYVEDI [G38S]	-1
RTVKALYDYKAKRSDELSFCRGALIHNVSKEPGGWWKGEYGTRIQQYFPSNYVEDI [D39E]	-0.798
RTVKSLYDYKAKRSDELSFCRGALIHNVSKEPGGWWKGDYGTRIQQYFPSNYVEDI [A5S]	-0.503

Query: Sample RTVKALYDSKAKRSDELSFCRGALIHNVSKEPGGWWKGDYGTRIQQYFPSNYVEDI [Y9S] — what was its abundance fitness?
Result: -0.939

Query: So what does the record say about abundance fitness for RTVKALYDYKAKRSDELSFCRGALIHNVSKEPGGWKKGDYGTRIQQYFPSNYVEDI [W36K] ?
Result: -0.705

Query: Would you mind telling me what abundance fitness value was observed for RTVKALYDYKAKRSDELSFCRGALIENVSKEPGGWWKGDYGTRIQQYFPSNYVEDI [H26E] ?
Result: -0.002

Query: State the recorded abundance fitness for this entry: RTVGALYDYKAKRSDELSFCRGALIHNVSKEPGGWWKGDYGTRIQQYFPSNYVEDI [K4G]
Result: -0.782
